# System tested: KRas G12C (Homo sapiens, UniProt P01116, G12C)
# Construct: Biotinylated KRas (corresponding to amino acids 1-169, produced at Accelegan Inc.); biotin (biotinylated); purchased Accelegan Inc
# Sequence (P01116 1-169 isoform P01116-2 G12C): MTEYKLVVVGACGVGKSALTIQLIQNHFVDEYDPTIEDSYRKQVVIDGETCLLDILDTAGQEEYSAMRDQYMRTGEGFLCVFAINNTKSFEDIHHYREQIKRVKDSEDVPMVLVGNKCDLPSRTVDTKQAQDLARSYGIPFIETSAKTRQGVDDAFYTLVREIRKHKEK
# Assay summary: KRas binding assay, TR-FRET displacement of Cy5 labelled tracer
# Experimental conditions: 60-minute incubation at room temperature, 1% DMSO, pH 7.5
# Experimental: This Example illustrates that exemplary compounds of the present invention bind to KRas and are capable of displacing a labeled tracer ligand occupying the KRas binding site. […] The ability of a compound to bind to KRas was measured using a TR-FRET displacement assay. […] After a 60-minute incubation at room temperature, the reaction was measured using a BMG LABTECH CLARIO star Plus via TR-FRET. […]
Each entry falls into one class according to its IC50; the ranges are low: < 60 nM; mid: ≥ 60 nM and < 300 nM; high: ≥ 300 nM

*Q* Please report the category associated with CCc1c(F)ccc2cc(O)cc(-c3ncc4c(N5CCN(C(=O)n6ccc(C)n6)C(C(F)F)C5)nc(OC[C@@]56CCCN5C[C@H](F)C6)nc4c3F)c12 (some centres unmarked) , nothing else.
*A* mid

*Q* Please report the category associated with O=C(Oc1ccccc1F)C1CCN(c2nc(OCC34CCCN3CCC4)nc3c(F)c(-c4cccc5cccc(F)c45)ncc23)CC1 , nothing else.
*A* high

*Q* Please report the category associated with CCc1c(F)ccc2cc(O)cc(-c3ncc4c(N5C[C@@H]6[C@H](C5)[C@@H]6C(=O)n5ccc(C)n5)nc(OC[C@@]56CCCN5C[C@H](F)C6)nc4c3F)c12 , nothing else.
*A* high

*Q* Please report the category associated with CCc1c(F)ccc2cc(O)cc(-c3ncc4c(N5CCC(C(=O)n6cc(C)cn6)CC5)nc(OC[C@@]56CCCN5C[C@H](F)C6)nc4c3F)c12 , nothing else.
*A* mid

*Q* Please report the category associated with CCc1c(F)ccc2cc(O)cc(-c3ncc4c(N5CC[C@@H](C(=O)n6ccc(C)n6)[C@@H](C)C5)nc(OC[C@@]56CCCN5C[C@H](F)C6)nc4c3F)c12 , nothing else.
*A* low

*Q* Please report the category associated with N#Cc1c(N)sc2c(F)ccc(-c3c(Cl)cc4c(N5CCC(C(=O)Oc6ccccc6Cl)CC5)nc(OC[C@@]56CCCN5C[C@H](F)C6)nc4c3F)c12 , nothing else.
*A* low

*Q* Please report the category associated with CCc1c(F)ccc2cc(O)cc(-c3ncc4c(N5CC(C(=O)n6ccc(C)n6)C(C)(C)C5)nc(OC[C@@]56CCCN5C[C@H](F)C6)nc4c3F)c12 (some centres unmarked) , nothing else.
*A* high

*Q* Please report the category associated with CCc1c(F)ccc2cc(O)cc(-c3ncc4c(N5C[C@H]6CC(C(=O)n7ccc(C)n7)C[C@H]6C5)nc(OC[C@@]56CCCN5C[C@H](F)C6)nc4c3F)c12 (some centres unmarked) , nothing else.
*A* mid

*Q* Please report the category associated with CN(C(=O)C1CCN(c2nc(OC[C@@]34CCCN3C[C@H](F)C4)nc3c(F)c(-c4ccc(F)c5sc(N)c(C#N)c45)c(Cl)cc23)CC1)c1ccncn1 , nothing else.
*A* low

*Q* Please report the category associated with CCc1c(F)ccc2cc(O)cc(N3CCc4c(nc(OC[C@@]56CCCN5C[C@H](F)C6)nc4N4CCC(C(=O)n5ccc(C)n5)CC4)C3)c12 , nothing else.
*A* high
